- assay_comment: amyloid nucleation score (Sup35N fusion, yeast selection) (log enrichment); library NNK3; higher = more nucleation; inactive = no reads after selection;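 note: zero at mode of non-aggregating sequences after 7 days selection at 30°C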
readout: amyloid nucleation score

Check out these entries, answers already filled in.
INSERT INTO measurements (substance, assay_result) VALUES
  ('VNQVVM', 'inactive'),
  ('VVHNYEITWYHL', 1.99),
  ('VPFDGLFWYCRCR', 'inactive'),
  ('ITMLMLATVKYSFYADLRFL', 'inactive'),
  ('IFGWLVDYLSFRVYKEDKGV', 'inactive'),
  ('VLTVVAKAWFPVFRPTWFLL', 'inactive');

# input Requested read-out: amyloid nucleation score. Entry: YTVRMWKDDVRARRGSQGVW
# output inactive

----------
- assay_comment: amyloid nucleation score (Sup35N fusion, yeast selection) (log enrichment); library NNK2; higher = more nucleation; inactive = no reads after selection
Mark FALSE for amyloid nucleation score values under 0.2, and TRUE for everything at or above.

Known results for substances:
INSERT INTO assay_data (substance, class_label) VALUES
  ('TCRTSTRRPIGWLSWYVG', 'TRUE'),
  ('CFSLYSCKDSINDMLKRSQN', 'FALSE'),
  ('GVCRDNILRENFGGWSTSRS', 'FALSE'),
  ('KAGLWYNCPAMYDGYLRLKA', 'TRUE'),
  ('CPTFKIKRDMSLTHRLFNIY', 'FALSE');

// next entry
# input Form field: amyloid nucleation score at least 0.2? Entry: AIMGHGLPYGTGLMEVGGAK
# output TRUE

----------
- assay_comment: amyloid nucleation score (Sup35N fusion, yeast selection) (log enrichment); library NNK1; higher = more nucleation; inactive = no reads after selection
readout: amyloid nucleation score

INSERT INTO measurements (substance, readout, assay_result) VALUES
  ('DDKITSLLVMSRDKVKPMSD', 'amyloid nucleation score', 'inactive'),
  ('LYRFWCYALST', 'amyloid nucleation score', 'inactive'),
  ('GRMEGTGNYMVYKDQEGVNG', 'amyloid nucleation score', 'inactive'),
  ('YINYHCFMIRFQFILVYRYQ', 'amyloid nucleation score', 'inactive'),
  ('DSYDLY', 'amyloid nucleation score', 'inactive');

Please look at the following substance next.
# input Would you mind telling me what amyloid nucleation score value was observed for ISIPYICIMVFFFDAVRVDQ ?
# output 0.49

----------
- assay_comment: amyloid nucleation score (Sup35N fusion, yeast selection) (log enrichment); library NNK2; higher = more nucleation; inactive = no reads after selection
readout: amyloid nucleation score

INSERT INTO measurements (query_sequence, readout, assay_result) VALUES
  ('NVFKGPVLHGFRDRISWVKD', 'amyloid nucleation score', 'inactive'),
  ('NGGLLYDI', 'amyloid nucleation score', 'inactive'),
  ('SPVICRVRGGLFINMSEYNV', 'amyloid nucleation score', 'inactive');

----------
- assay_comment: amyloid nucleation score (Sup35N fusion, yeast selection) (log enrichment); library NNK2; higher = more nucleation; inactive = no reads after selection
Entries and their amyloid nucleation score
Just the number, please, no unit after it.

INSERT INTO assay_data (substance, readout, assay_result) VALUES
  ('HFFSSSSMRMYTSYSPLVMW', 'amyloid nucleation score', 0.215);

# input I would be grateful if you could share the reported amyloid nucleation score for CSNLSV .
# output 0.167

# input Value lookup for amyloid nucleation score; key = VRDSSNYMTLFRCSNFWHTR
# output 6.49

# input Dear colleague, I am looking for the recorded amyloid nucleation score of the following substance: SKCWESREQGYMYMEWGFEG
# output 0.219

# input Suppose we examine the substance KSHLVF ; what amyloid nucleation score value has been reported?
# output -0.312

# input I'd like to know its amyloid nucleation score. The substance in question is KTTLVHFFVAREYLWRRMWG
# output 4.38
